Recorded values, source patent US20230091608A1.

# System: aminopeptidase (AP)
# TEST METHOD NOTES: Cleavage of [Ia-X] constructs by aminopeptidase (AP), LC/MS for complete degradation
# Assay type: biochemical
QUANTITY: Detectable after 24 h incubation with AP

SMILES ENTRY: NCC(=O)O
QUANTITY: Detectable after 24 h incubation with AP
REPORTED: +
--
SMILES ENTRY: N[C@@H](Cc1c[nH]c2ccccc12)C(=O)O
QUANTITY: Detectable after 24 h incubation with AP
REPORTED: +
--
SMILES ENTRY: CC(C)C[C@H](N)C(=O)O
QUANTITY: Detectable after 24 h incubation with AP
REPORTED: −
